Items are presented alongside their recorded Plant response rating, Oat, Wild.
system: oat, wild; test: Test A postemergence; type: in vivo, Avena fatua; settings: 500 g ai/ha, postemergence, 10 days, visual injury, 0 to 100 scale (0 no effect, 100 complete control)
Excerpt: […]
Output: the number by itself.

Noted for `CC(C)Oc1ccc(-n2cnc(C(C)C)n2)cc1C(=O)N1C[C@H](C)Oc2c(Cl)cccc21` : its Plant response rating, Oat, Wild reads 70

Plant response rating, Oat, Wild in this record for `C[C@H]1CN(C(=O)c2cc(-n3cncn3)ccc2C(F)(F)F)c2cccc(Cl)c2O1` : 10

Short answer for `Cc1cccc2c1O[C@@H](C)CN2C(=O)c1cccc(-n2cnc(Cl)n2)c1` : Plant response rating, Oat, Wild was 30

Recorded result, `C[C@H]1CN(C(=O)c2cc(Cl)cc(-n3cncn3)c2)c2cccc(Cl)c2O1` , Plant response rating, Oat, Wild: 20

Quick note, Plant response rating, Oat, Wild for `CCc1ccc(-n2cnc(C3CCC3)n2)cc1C(=O)N1C[C@H](C)Oc2c(Cl)cccc21` landed at 40

Next:
Input `COc1cc(C(=O)N2C[C@H](C)Oc3c(Cl)cccc32)cc(-n2cncn2)c1` . Output Plant response rating, Oat, Wild: 80
